# tgt: Serine/threonine-protein kinase pim-2 (Homo sapiens) (UniProt Q9P1W9)
# Sequence (Q9P1W9 whole entry, looked up): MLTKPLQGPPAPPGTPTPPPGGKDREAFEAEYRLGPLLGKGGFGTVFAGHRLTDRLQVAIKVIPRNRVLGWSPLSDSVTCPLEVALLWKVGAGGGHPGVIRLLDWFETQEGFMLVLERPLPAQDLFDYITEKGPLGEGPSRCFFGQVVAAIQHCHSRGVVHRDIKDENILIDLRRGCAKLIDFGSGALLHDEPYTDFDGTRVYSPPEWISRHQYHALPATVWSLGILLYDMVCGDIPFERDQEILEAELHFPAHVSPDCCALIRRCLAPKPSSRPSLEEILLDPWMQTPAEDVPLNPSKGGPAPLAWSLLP
# test: Inhibition of human Pim2 using RSRHSSYPAGT as substrate assessed as residual activity at 1 uM
recordedMetric: Activity
Answers without a unit are incomplete; give the number and then its unit.

Known results for molecules:
{"columns": ["smilesRepresentation", "Activity"],
 "data": [
  ["COC(=O)c1cc2c3ccccc3[nH]c2c2[nH]ccc12", "95%"],
  ["Nc1cccc2[nH]c3c(cc(C(=O)O)c4cc[nH]c43)c12", "101%"],
  ["O=C(O)c1cc2c3ccccc3[nH]c2c2[nH]ccc12", "100%"]
]}

Now for a further molecule.
Ask | Endpoint output: Activity of COC(=O)c1cc2c([nH]c3cccc(N)c32)c2[nH]ccc12 . Value?
Reply | 93%

* * *

Item-by-item account of Activity
# tgt: Serine/threonine-protein kinase pim-1 (Homo sapiens)
# test: Inhibition of human Pim1 using RSRHSSYPAGT as substrate assessed as residual activity at 10 uM
// note: answer is a bare numeric in %

Known results for compounds:
{"columns": ["smilesRepresentation", "recordedMetric", "experimentalResult"],
 "data": [
  ["Nc1cccc2[nH]c3c(cc(C(=O)O)c4cc[nH]c43)c12", "Activity", 87],
  ["COC(=O)c1cc2c3ccccc3[nH]c2c2[nH]ccc12", "Activity", 15],
  ["O=C(O)c1cc2c3ccccc3[nH]c2c2[nH]ccc12", "Activity", 70]
]}

Ask | Endpoint output: Activity of COC(=O)c1cc2c([nH]c3cccc(N)c32)c2[nH]ccc12 . Value?
Reply | 39

* * *

# tgt: Serine/threonine-protein kinase pim-1 (Homo sapiens, UniProt P11309)
# Sequence (P11309 whole entry, looked up): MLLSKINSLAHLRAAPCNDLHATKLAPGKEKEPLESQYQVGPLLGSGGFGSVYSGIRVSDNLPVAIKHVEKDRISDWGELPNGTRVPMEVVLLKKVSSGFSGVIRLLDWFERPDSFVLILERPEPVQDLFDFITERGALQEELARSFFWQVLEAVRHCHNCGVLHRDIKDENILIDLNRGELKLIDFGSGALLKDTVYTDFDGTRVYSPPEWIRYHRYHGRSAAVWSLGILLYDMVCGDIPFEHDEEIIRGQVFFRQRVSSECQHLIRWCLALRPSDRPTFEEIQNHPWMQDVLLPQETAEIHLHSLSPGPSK
# test: Inhibition of human Pim1 using RSRHSSYPAGT as substrate assessed as residual activity at 1 uM
recordedMetric: Activity (%)
// note: answer is a bare numeric in %

{"columns": ["smilesRepresentation", "experimentalResult"],
 "data": [
  ["Nc1cccc2[nH]c3c(cc(C(=O)O)c4cc[nH]c43)c12", 103],
  ["COC(=O)c1cc2c([nH]c3cccc(N)c32)c2[nH]ccc12", 90],
  ["COC(=O)c1cc2c3ccccc3[nH]c2c2[nH]ccc12", 57]
]}

Now for a further compound.
Ask | Return Activity measured with Serine/threonine-protein kinase pim-1 (Homo sapiens, UniProt P11309) given this compound: O=C(O)c1cc2c3ccccc3[nH]c2c2[nH]ccc12
Reply | 90

* * *

# tgt: Serine/threonine-protein kinase pim-3 (Homo sapiens)
# test: Inhibition of human Pim3 using RSRHSSYPAGT as substrate assessed as residual activity at 10 uM
recordedMetric: Activity

Known results for compounds:
{"columns": ["smilesRepresentation", "tgt", "recordedMetric", "experimentalResult"],
 "data": [
  ["COC(=O)c1cc2c([nH]c3cccc(N)c32)c2[nH]ccc12", "Serine/threonine-protein kinase pim-3 (Homo sapiens)", "Activity", "16%"],
  ["Nc1cccc2[nH]c3c(cc(C(=O)O)c4cc[nH]c43)c12", "Serine/threonine-protein kinase pim-3 (Homo sapiens)", "Activity", "55%"]
]}

Ask | Endpoint output: Activity of O=C(O)c1cc2c3ccccc3[nH]c2c2[nH]ccc12 . Value?
Reply | 65%

Ask | COC(=O)c1cc2c3ccccc3[nH]c2c2[nH]ccc12 ?
Reply | 24%

* * *

Item-by-item account of Activity
# tgt: Serine/threonine-protein kinase pim-3 (Homo sapiens)
# test: Inhibition of human Pim3 using RSRHSSYPAGT as substrate assessed as residual activity at 1 uM

Known results for molecules:
{"columns": ["smilesRepresentation", "Activity"],
 "data": [
  ["Nc1cccc2[nH]c3c(cc(C(=O)O)c4cc[nH]c43)c12", "103%"],
  ["COC(=O)c1cc2c3ccccc3[nH]c2c2[nH]ccc12", "47%"],
  ["O=C(O)c1cc2c3ccccc3[nH]c2c2[nH]ccc12", "101%"]
]}

Now for a further molecule.
Ask | Return Activity measured with Serine/threonine-protein kinase pim-3 (Homo sapiens) given this molecule: COC(=O)c1cc2c([nH]c3cccc(N)c32)c2[nH]ccc12
Reply | 40%

* * *

# System: PC-3
# test: Antiproliferative activity against human PC3 cells after 48 hrs by resazurin reduction test
# Type: functional, cell-based
# experimentalSetup: PC-3, 48 h
recordedMetric: pIC50
Remember, pIC50 is on a log scale: it is -log10 of the molar concentration.

Ask | Endpoint output: pIC50 of COC(=O)c1cc2c3ccccc3[nH]c2c2[nH]ccc12 . Value?
Reply | 5.22
